- Target desc: human glucagon receptor (Homo sapiens, UniProt P47871)
- Construct: expressed in transfected cells; host or cells: BHK (baby hamster kidney) cells
- Sequence (P47871 26-477): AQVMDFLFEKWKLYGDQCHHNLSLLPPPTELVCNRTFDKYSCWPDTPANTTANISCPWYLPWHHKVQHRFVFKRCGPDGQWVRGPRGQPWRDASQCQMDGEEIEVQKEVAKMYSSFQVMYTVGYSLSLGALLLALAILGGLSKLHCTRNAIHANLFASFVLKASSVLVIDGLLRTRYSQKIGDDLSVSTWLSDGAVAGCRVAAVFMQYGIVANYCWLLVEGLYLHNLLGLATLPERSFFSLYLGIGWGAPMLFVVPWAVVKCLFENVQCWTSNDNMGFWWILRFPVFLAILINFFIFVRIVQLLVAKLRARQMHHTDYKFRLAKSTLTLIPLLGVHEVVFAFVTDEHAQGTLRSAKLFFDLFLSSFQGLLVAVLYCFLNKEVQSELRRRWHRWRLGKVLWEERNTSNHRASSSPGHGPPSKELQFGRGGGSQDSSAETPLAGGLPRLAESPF
- Procedure details: Glucagon Binding Assay (III)
- Condition description: BHK cell membranes, WGA SPA beads, 125I-glucagon; read-out: Glu Bd Assay (III) IC50
Measured quantity: log10 IC50 (log10 of the value in nM)
In our notation, the value equals log10 of IC50 in nM.

Bench note, human glucagon receptor (Homo sapiens, UniProt P47871): CNC(=O)c1cccc(NC(=O)N(Cc2ccc(C(=O)Nc3nn[nH]n3)cc2)c2ccc(C(C)(C)C)cc2)c1 , log10 IC50 reads 3.26

Measured log10 IC50 (human glucagon receptor (Homo sapiens, UniProt P47871)), entry CSc1cccc(O)c1C(=O)N(Cc1ccc(C(=O)Nc2nn[nH]n2)cc1)c1ccc(C2CCCCC2)cc1 : 2.48

Per the reported human glucagon receptor (Homo sapiens, UniProt P47871) data, O=C(Nc1nn[nH]n1)c1ccc(CN(C(=O)c2cc3cc(OC(F)(F)F)ccc3[nH]2)c2ccc(C3CCCCC3)cc2)cc1 has log10 IC50 of 3.03

Fill in: human glucagon receptor (Homo sapiens, UniProt P47871) log10 IC50 for O=C(Nc1nn[nH]n1)c1ccc(CN(C(=O)Nc2ccc(Br)c(C(F)(F)F)c2)c2ccc(C3=CCCCC3)cc2)cc1 = 1.23

Query CC(C)(C)c1ccc(N(Cc2ccc(C(=O)Nc3nn[nH]n3)cc2)C(=O)Nc2ccc(SC(F)(F)F)cc2)cc1 on human glucagon receptor (Homo sapiens, UniProt P47871); log10 IC50 returned: 1.30

Sample CC(Oc1ccc(OC(F)(F)F)cc1)C(=O)N(Cc1ccc(C(=O)Nc2nn[nH]n2)cc1)c1ccc(N2CCCCC2)cc1 (stereo not shown) , system: human glucagon receptor (Homo sapiens, UniProt P47871). Its log10 IC50 is 2.90

Record CCC(C)(C)[C@H]1CC[C@H](N(Cc2ccc(C(=O)NCCC(=O)O)cc2)C(=O)Nc2ccc(OC(F)(F)F)cc2)CC1 / human glucagon receptor (Homo sapiens, UniProt P47871), log10 IC50 recorded as 1.69

* * *

Kindly supply the reported inhibition at 1 µM values for the records listed here.
- Target desc: cloned human glucagon receptor (Homo sapiens)
- Construct: expressed in transfected cells; plasma membrane preparation
- Sequence (P47871 26-477): as above
- Procedure details: Glucagon Binding Assay (II)
- Condition description: screened at 1 μM; library compounds; read-out: displacement of the glucagon tracer when screened at 1 μM concentration in the glucagon binding assay II

inhibition at 1 µM for O=C(O)CCNC(=O)c1ccc(CN(C(=O)Nc2ccc(Cl)c(C(F)(F)F)c2)c2ccc3c(c2)OC(F)(F)C(F)(F)O3)cc1 is > 50%

// field: inhibition at 1 µM; key: O=C(O)CCNC(=O)c1ccc(CN(C(=O)Nc2cccc(SC(F)(F)F)c2)c2ccc(C3CCCCC3)cc2)cc1 ; value = > 50%

The molecule identified as O=C(O)CCNC(=O)c1ccc(CN(Cc2ccc(C(F)(F)F)cc2)C(=O)Nc2ccc(SC(F)(F)F)cc2)cc1 registered its inhibition at 1 µM at > 50%

In plain terms, O=C(O)CCNC(=O)c1ccc(CN(Cc2ccccc2OC(F)(F)F)C(=O)Nc2ccc(SC(F)(F)F)cc2)s1 has a documented inhibition at 1 µM of > 50%

So for O=C(O)CCNC(=O)c1ccc(CN(C(=O)Nc2cccc(SC(F)(F)F)c2)c2ccc(C3CCCCC3)cc2)o1 , the logged inhibition at 1 µM turned out to be > 50%

molecule Cc1cc(C)cc(NC(=O)N(Cc2ccc(OCCCC(=O)O)cc2)c2ccc(C3CCCCC3)cc2)c1 , inhibition at 1 µM observed: > 50%

Data point: CN(CCN(Cc1ccc(C(=O)NCCC(=O)O)cc1)C(=O)Nc1cccc(SC(F)(F)F)c1)C(=O)OC(C)(C)C ; inhibition at 1 µM = > 50%

Data point: O=C(O)CCCOc1ccc(CN(C(=O)Nc2ccc(C(=O)O)cc2)c2ccc(C3CCCCC3)cc2)cc1 ; inhibition at 1 µM = > 50%

Entry under test: COc1ccc(CN(Cc2ccc(C(=O)NCCC(=O)O)cc2)Cc2cccc(Oc3cccc(C(F)(F)F)c3)c2)cc1OC . Its inhibition at 1 µM was > 50%

# inhibition at 1 µM (molecule: O=C(O)CCNC(=O)c1ccc(CN(C(=O)Nc2ccc(Cl)c(C(F)(F)F)c2)[C@@H](CO)CC2CCCCC2)cc1 (stereo in doubt) ) is > 50%

inhibition at 1 µM in this record for O=C(O)CCNC(=O)c1ccc(CN(C(=O)Nc2ccc(Cl)c(C(F)(F)F)c2)c2ccc3nc(S)sc3c2)cc1 : > 50%

Reported inhibition at 1 µM of O=C(O)CCNC(=O)c1ccc(CN(CCC(c2ccccc2)c2ccccc2)Cc2ccc(C(F)(F)F)cc2)cc1 : > 50%

Briefly, inhibition at 1 µM measured for COc1ccc2nc(N(Cc3ccc(OCCCC(=O)O)cc3)C(=O)Nc3ccc(Cl)c(C(F)(F)F)c3)sc2n1 : > 50%

// inhibition at 1 µM lookup, molecule = CC(C)(C)C1CCC(N(Cc2cccc(C(=O)NCCC(=O)O)c2)C(=O)Nc2cc(Cl)cc(Cl)c2)CC1 (stereo not shown) , result: > 50%

Kindly note the recorded inhibition at 1 µM for CC(C)(C)C1CCC(N(Cc2ccc(C(=O)Nc3ccc4c(c3)C(=O)NC4=O)cc2)C(=O)Nc2cc(Cl)cc(Cl)c2)CC1 (stereo not shown) , which is > 50%

Item: CC(C)(C)C1CCC(N(Cc2ccc(C(=O)Nc3ccc4c(c3)OCCO4)cc2)C(=O)Nc2ccc(Cl)cc2)CC1 (stereo not shown) | inhibition at 1 µM: > 50%
